Test system: 293T cells
measurement-protocol: Fluorescent detection of Fluc-mRNA (cell transfection efficiency of LNP formulations)
Type: cell-based
test-context: RLU of named substance / RLU of compound 21
Please go through the items and note down their Fluc-mRNA expression signal intensity, times that of compound 21.
State the answer as a number, implicitly in times.

Query :: Provide Fluc-mRNA expression signal intensity, times that of compound 21, recorded with 293T cells, of CCCCCCCCCCOC(=O)CCCN(CCCCCC(=O)OCCC(CCCCCC)CCCCCC)CCC(C)(C)O [YK-119]
Result :: 0.0062

Query :: Provide Fluc-mRNA expression signal intensity, times that of compound 21, recorded with 293T cells, of CCCCCCCCCCOC(=O)CCCN(CCCCCC(=O)OCCC(CCCCCC)CCCCCC)CCOCCOCCO [YK-121]
Result :: 0.31

Query :: Provide Fluc-mRNA expression signal intensity, times that of compound 21, recorded with 293T cells, of CCCCCCCCCCOC(=O)CCCN(CCCCCC(=O)OCCC(CCCCCC)CCCCCC)C1CCCC1O (stereo not drawn) [YK-120]
Result :: 1.01

Query :: Provide Fluc-mRNA expression signal intensity, times that of compound 21, recorded with 293T cells, of CCCCCCCCCCOC(=O)CCCN(CCCCCC(=O)OCC(CCCCCCCC)CCCCCCCC)CCOCCO [YK-124]
Result :: 0.06

Query :: Provide Fluc-mRNA expression signal intensity, times that of compound 21, recorded with 293T cells, of CCCCCCCCCCOC(=O)CCCN(CCCCCC(=O)OCC(CCCCCCCC)CCCCCCCC)CCOCCOCCO [YK-122]
Result :: 1.02

Query :: Provide Fluc-mRNA expression signal intensity, times that of compound 21, recorded with 293T cells, of CCCCCCCCCCOC(=O)CCCN(CCCCCC(=O)OCCC(CCCCCC)CCCCCC)C[C@@H](O)CO [YK-115]
Result :: 1.03

Query :: Provide Fluc-mRNA expression signal intensity, times that of compound 21, recorded with 293T cells, of CCCCCCCCCCOC(=O)CCCN(CCCCCC(=O)OCCC(CCCCCC)CCCCCC)CCOC(=O)CCCN(C)C [YK-125]
Result :: 0.12

Query :: Provide Fluc-mRNA expression signal intensity, times that of compound 21, recorded with 293T cells, of CCCCCCCCCCOC(=O)CCCN(CCCCCC(=O)OCCC(CCCCCC)CCCCCC)CCC(C)O (stereo not drawn) [YK-118]
Result :: 0.0153

Query :: Provide Fluc-mRNA expression signal intensity, times that of compound 21, recorded with 293T cells, of CCCCCCCCCCOC(=O)CCCN(CCCCCC(=O)OCCC(CCCCCC)CCCCCC)CC(O)CO (stereo not drawn) [YK-114]
Result :: 1.02
